Compiled from multiple publications: pIC50 readings for UniProtKB Q9UHD2.
pIC50: −log10 of the molar value.

CC(CO)(CO)COc1ccc(-c2ccnc3cc(-c4ccc(C(=O)N5CCNCC5)cc4)oc23)cc1C#N on UniProtKB Q9UHD2 gives pIC50 = 5.52 to 6.52

For N#Cc1cc(-c2c[nH]c3ncc(-c4cnn(C5COC5)c4)cc23)ccc1OC1CCOCC1 on UniProtKB Q9UHD2, measured pIC50 was > 6.52

Sample Cn1cc(-c2cnc3[nH]cc(-c4cn(Cc5ccccc5F)nn4)c3n2)cn1 , system: UniProtKB Q9UHD2. Its pIC50 is 6.00 to 9.30
